Entry source: ChEMBL document CHEMBL1124167

# Test system: Rattus norvegicus
# Assay Details: In vivo inhibitory activity against basal acid secretion in pylorus-ligated rat was determined at a dose of 4 mg/kg
# Type: functional
Simple rule here: Total acid output less than 80% is T, otherwise F.

[
  {
    "Smiles Entry": "N=C(N)Nc1nc(CSCCNC2=NS(=O)(=O)c3cscc32)cs1",
    "Class Label": "F"
  },
  {
    "Smiles Entry": "Cl.O=S1(=O)N=C(NCCCOc2cccc(CN3CCCC3)c2)c2cscc21",
    "Class Label": "T"
  },
  {
    "Smiles Entry": "O=Cc1cccc(OCCCNC2=NS(=O)(=O)c3cscc32)c1",
    "Class Label": "F"
  },
  {
    "Smiles Entry": "O=S1(=O)N=C(NCCCOc2cccc(CN3CC=CCC3)c2)c2cscc21",
    "Class Label": "T"
  },
  {
    "Smiles Entry": "CCCN(CCC)Cc1cccc(OCCCNC2=NS(=O)(=O)c3cscc32)c1.Cl",
    "Class Label": "T"
  }
]
